Reference source: paper PMC9822058

I'd be grateful if you could share measured α-glucosidase (% inh. at 50 µg/mL) for these entries.
test system: α-glucosidase from Saccharomyces cerevisiae; experiment: α-glucosidase inhibitory assay (PNPG substrate); type: biochemical; conditions: at 50 µg/mL, highest test concentration
Note: unit % is implicit; provide only the numeric part.

α-glucosidase (% inh. at 50 µg/mL) reported for this molecule COc1cc2c(=O)oc3c(OC)c(OC4OC(COC5OC(C)C(O)C(O)C5O)C(O)C(O)C4O)cc4c(=O)oc(c1OC)c2c34 (stereo not drawn) : 51.8

α-glucosidase (% inh. at 50 µg/mL) reported for this molecule COc1ccc2c(=O)c(-c3ccc(O)cc3)coc2c1 : 51.8

α-glucosidase (% inh. at 50 µg/mL) reported for this molecule C=C(C)[C@@H]1CC[C@]2(CO)CC[C@]3(C)[C@H](CC[C@@H]4[C@@]5(C)CC[C@H](O)C(C)(C)[C@@H]5CC[C@]43C)[C@@H]12 : 28.5

###

Target: α-glucosidase from Saccharomyces cerevisiae
Assay: α-glucosidase inhibitory assay (PNPG substrate)
Format: biochemical
Experimental: The α-glucosidase inhibitory activity was evaluated according to the method described previously. 50 µL of phosphate buffer (0.01 M pH 6.9), 10 µL of different concentrations of compound or extract solution, 50 µL of α-glucosidase from Saccharomyces cerevisiae in phosphate buffer (0.01 M pH 6.0) and PNPG (4-N-nitrophenyl-α-D-glucopyranoside) 25 µL in phosphate buffer (0.01 M pH 6.9) were mixed in a 96-well microplate. The solution was then incubated for 20 min at 37 °C.
assay readout: α-glucosidase IC50 (µg/mL)
Note: unit µg/mL is implicit; provide only the numeric part.

# value of α-glucosidase IC50, α-glucosidase from Saccharomyces cerevisiae, item COc1cc2c(=O)oc3c(OC)c(OC4OC(COC5OC(C)C(OC(C)=O)C(OC(C)=O)C5OC(C)=O)C(OC(C)=O)C(OC(C)=O)C4OC(C)=O)cc4c(=O)oc(c1OC)c2c34 (centres unmarked) = 47.5

# value of α-glucosidase IC50, α-glucosidase from Saccharomyces cerevisiae, item COc1cc2c(=O)oc3c(OC)c(OC4OC(COC5OC(C)C(O)C(O)C5O)C(O)C(O)C4O)cc4c(=O)oc(c1OC)c2c34 (centres unmarked) = 45.0

# value of α-glucosidase IC50, α-glucosidase from Saccharomyces cerevisiae, item COc1ccc(C(C)C(=O)c2ccc(O)cc2O)cc1 (centres unmarked) = 43.4

###

test system: α-glucosidase from Saccharomyces cerevisiae; assay: α-glucosidase inhibitory assay (PNPG substrate); assay type: biochemical; settings: at 50 µg/mL, highest test concentration
I'd be grateful if you could share measured α-glucosidase (% inh. at 50 µg/mL) for these entries.
Note: unit % is implicit; provide only the numeric part.

α-glucosidase (% inh. at 50 µg/mL) reported for this compound C[C@H]1C(=O)CC[C@@H]2[C@]1(C)CC[C@H]1[C@@]2(C)CC[C@@]2(C)[C@@H]3CC(C)(C)CC[C@]3(C)CC[C@]12C : 32.1

α-glucosidase (% inh. at 50 µg/mL) reported for this compound COc1cc2c(=O)oc3c(OC)c(OC4OC(COC5OC(C)C(OC(C)=O)C(OC(C)=O)C5OC(C)=O)C(OC(C)=O)C(OC(C)=O)C4OC(C)=O)cc4c(=O)oc(c1OC)c2c34 (stereo not shown) : 50.7

α-glucosidase (% inh. at 50 µg/mL) reported for this compound COc1c(-c2ccc(O)c(O)c2)oc2cc(O)cc(O)c2c1=O : 54.0

α-glucosidase (% inh. at 50 µg/mL) reported for this compound O=C(O)[C@H]1O[C@@H](Oc2cc(O)c3c(=O)cc(-c4ccc(O)cc4)oc3c2)[C@H](O)[C@@H](O)[C@@H]1O [compound 8, apigenin 7-O-glucoronide] : 55.2
